Reported aptazyme ON/OFF ratio values are given for each entry in this list.
B1: Pistol ribozyme (parent)
chain: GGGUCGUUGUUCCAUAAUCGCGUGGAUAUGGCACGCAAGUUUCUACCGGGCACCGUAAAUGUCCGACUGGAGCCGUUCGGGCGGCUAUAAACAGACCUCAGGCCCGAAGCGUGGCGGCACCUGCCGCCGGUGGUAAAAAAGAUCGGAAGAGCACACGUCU

variants of: B1; experiment: aptazyme ON/OFF ratio, guanine; higher = stronger switching; co-transcriptional cleavage with and without guanine
endpoint: aptazyme ON/OFF ratio

- U7G G9A U11C C12U C13A: 1.15
- U7A U8C C12U C13A: 1.3
- U7G U8C G9U U10C U11A C12G C13U: 1.2
- G9C U10C U11G C13U: 1.08
- U7C U10C U11C C13U: 1.08
- U7A G9A U11A C13U: 1.06
- U7A U8G G9A U11C C12G C13G: 1.4
- U7G U8A U10A U11C C12U C13G: 1.23
- U7G U8A G9U U10A U11G C12G: 1.08
- U8C G9A U10G U11C C12A C13U: 1.22
- U7C U8C G9U U11G C12G: 1.19
- U7C G9U U10A U11C C12U C13U: 1.29
- U7A U8A G9U C12G C13A: 1.19
- U8C G9A U10A U11A C13A: 1.17
- U7C U8G U10G U11A C12U C13U: 1.23
- U7C U8C U10C U11A C12A C13G: 1.17
